// provenance: the supplement of paper PMC10307832

Tested on: NCI-H1437
Assay: relative viability (nuclei count vs DMSO), 5 days (fraction); higher = more cells survive
Settings: first compound 0.01 µM
Below: a set of entries, each annotated with reported relative viability.
In your answer, state the number alone without any accompanying words.

Example entries begin here.
compound	readout_value
Cc1cn(-c2cc(NC(=O)c3ccc(C)c(Nc4nccc(-c5cccnc5)n4)c3)cc(C(F)(F)F)c2)cn1 [Nilotinib] + CC(=O)Nc1cccc(-n2c(=O)n(C3CC3)c(=O)c3c(Nc4ccc(I)cc4F)n(C)c(=O)c(C)c32)c1 [Trametinib] (partner 0.02 µM)	0.631
Cc1cn(-c2cc(NC(=O)c3ccc(C)c(Nc4nccc(-c5cccnc5)n4)c3)cc(C(F)(F)F)c2)cn1 [Nilotinib] + CS(=O)(=O)N1CCN(Cc2cc3nc(-c4cccc5[nH]ncc45)nc(N4CCOCC4)c3s2)CC1 [Pictilisib] (partner 1 µM)	0.373
Cc1cn(-c2cc(NC(=O)c3ccc(C)c(Nc4nccc(-c5cccnc5)n4)c3)cc(C(F)(F)F)c2)cn1 [Nilotinib] + Nc1ncn([C@H]2C[C@H](O)[C@@H](CO)O2)c(=O)n1 [Decitabine] (partner 2 µM)	0.625
Cc1cn(-c2cc(NC(=O)c3ccc(C)c(Nc4nccc(-c5cccnc5)n4)c3)cc(C(F)(F)F)c2)cn1 [Nilotinib] + Cc1nc(Nc2ncc(C(=O)Nc3c(C)cccc3Cl)s2)cc(N2CCN(CCO)CC2)n1 [Dasatinib] (partner 0.075 µM)	0.373

Now look at this one.
The compound listed as Cc1cn(-c2cc(NC(=O)c3ccc(C)c(Nc4nccc(-c5cccnc5)n4)c3)cc(C(F)(F)F)c2)cn1 [Nilotinib] + CC(C)C[C@H](NC(=O)[C@H](Cc1ccccc1)NC(=O)c1cnccn1)B(O)O [Bortezomib] (partner 0.002 µM) shows relative viability equal to 0.651

* * *

Test system: NCI-H2170
Test: relative viability (nuclei count vs DMSO), 5 days (fraction); higher = more cells survive
Conditions: first compound 0.001 µM
property_measured: relative viability

compound	study_system	relative viability
Cc1cn(-c2cc(NC(=O)c3ccc(C)c(Nc4nccc(-c5cccnc5)n4)c3)cc(C(F)(F)F)c2)cn1 [Nilotinib] + COc1cc2c(Oc3ccc(NC(=O)C4(C(=O)Nc5ccc(F)cc5)CC4)cc3F)ccnc2cc1OCCCN1CCOCC1 [Foretinib] (partner 0.25 µM)	NCI-H2170	1.03
Cc1cn(-c2cc(NC(=O)c3ccc(C)c(Nc4nccc(-c5cccnc5)n4)c3)cc(C(F)(F)F)c2)cn1 [Nilotinib] + Nc1ncn([C@H]2C[C@H](O)[C@@H](CO)O2)c(=O)n1 [Decitabine] (partner 2 µM)	NCI-H2170	0.488

Now look at this one.
Cc1cn(-c2cc(NC(=O)c3ccc(C)c(Nc4nccc(-c5cccnc5)n4)c3)cc(C(F)(F)F)c2)cn1 [Nilotinib] + Cc1cc(Nc2cc(N3CCN(C)CC3)nc(Sc3ccc(NC(=O)C4CC4)cc3)n2)n[nH]1 [Tozasertib] (partner 0.1 µM) tested on NCI-H2170 gave relative viability: 0.734

* * *

Below: a set of entries, each annotated with reported relative viability.
Test system: NCI-H2170
Assay: relative viability (nuclei count vs DMSO), 5 days (fraction); higher = more cells survive
Settings: first compound 0.2 µM
In your answer, state the number alone without any accompanying words.

compound	study_system	relative viability
Cc1csc(=NC2CCCCC2)n1/N=C/c1ccc(O)c(O)c1O [MIM1] + Cc1cc(Nc2cc(N3CCN(C)CC3)nc(Sc3ccc(NC(=O)C4CC4)cc3)n2)n[nH]1 [Tozasertib] (partner 0.1 µM)	NCI-H2170	0.706

Cc1csc(=NC2CCCCC2)n1/N=C/c1ccc(O)c(O)c1O [MIM1] + O=C(c1cc(Cc2n[nH]c(=O)c3ccccc23)ccc1F)N1CCN(C(=O)C2CC2)CC1 [Olaparib] (partner 8 µM) tested on NCI-H2170 gave relative viability: 0.539

Cc1csc(=NC2CCCCC2)n1/N=C/c1ccc(O)c(O)c1O [MIM1] + N=C(N)NC(=N)NCCc1ccccc1 [Phenformin] (partner 250 µM) tested on NCI-H2170 gave relative viability: 0.407

Cc1csc(=NC2CCCCC2)n1/N=C/c1ccc(O)c(O)c1O [MIM1] + CC(=O)c1c(C)c2cnc(Nc3ccc(N4CCNCC4)cn3)nc2n(C2CCCC2)c1=O [Palbociclib] (partner 0.5 µM) tested on NCI-H2170 gave relative viability: 0.38

Cc1csc(=NC2CCCCC2)n1/N=C/c1ccc(O)c(O)c1O [MIM1] + COc1cccc2cc(-c3nc([C@H]4CC[C@H](C(=O)O)CC4)n4ncnc(N)c34)[nH]c12 [OSI-027] (partner 0.5 µM) tested on NCI-H2170 gave relative viability: 0.714

* * *

Test system: NCI-H2342
Test: relative viability (nuclei count vs DMSO), 5 days (fraction); higher = more cells survive
Conditions: first compound 0.6325 µM
Below: a set of entries, each annotated with reported relative viability.
In your answer, state the number alone without any accompanying words.

Example entries begin here.
compound	relative viability
Cc1csc(=NC2CCCCC2)n1/N=C/c1ccc(O)c(O)c1O [MIM1] + O=C(c1cc(Cc2n[nH]c(=O)c3ccccc23)ccc1F)N1CCN(C(=O)C2CC2)CC1 [Olaparib] (partner 8 µM)	0.386
Cc1csc(=NC2CCCCC2)n1/N=C/c1ccc(O)c(O)c1O [MIM1] + Cc1nc(Nc2ncc(C(=O)Nc3c(C)cccc3Cl)s2)cc(N2CCN(CCO)CC2)n1 [Dasatinib] (partner 0.075 µM)	0.316

Now look at this one.
The compound listed as Cc1csc(=NC2CCCCC2)n1/N=C/c1ccc(O)c(O)c1O [MIM1] + COc1cccc2cc(-c3nc([C@H]4CC[C@H](C(=O)O)CC4)n4ncnc(N)c34)[nH]c12 [OSI-027] (partner 0.5 µM) shows relative viability equal to 0.59

* * *

Tested on: NCI-H1915
Test: relative viability (nuclei count vs DMSO), 5 days (fraction); higher = more cells survive
Settings: first compound 0.006325 µM
property_measured: relative viability
In your answer, state the number alone without any accompanying words.

Example entries begin here.
compound	study_system	readout_value
CCNC(=O)c1noc(-c2cc(C(C)C)c(O)cc2O)c1-c1ccc(CN2CCOCC2)cc1 [Luminespib] + COc1cc2c(Oc3ccc(NC(=O)C4(C(=O)Nc5ccc(F)cc5)CC4)cc3F)ccnc2cc1OCCCN1CCOCC1 [Foretinib] (partner 0.25 µM)	NCI-H1915	1.04
CCNC(=O)c1noc(-c2cc(C(C)C)c(O)cc2O)c1-c1ccc(CN2CCOCC2)cc1 [Luminespib] + C[C@@H](Oc1cc(-c2cnn(C3CCNCC3)c2)cnc1N)c1c(Cl)ccc(F)c1Cl [Crizotinib] (partner 1 µM)	NCI-H1915	0.897
CCNC(=O)c1noc(-c2cc(C(C)C)c(O)cc2O)c1-c1ccc(CN2CCOCC2)cc1 [Luminespib] + C[C@]1(O)C[C@@H](c2nc(-c3ccc4ccc(-c5ccccc5)nc4c3)c3c(N)nccn32)C1 [Linsitinib] (partner 1 µM)	NCI-H1915	1.09

Now look at this one.
The compound listed as CCNC(=O)c1noc(-c2cc(C(C)C)c(O)cc2O)c1-c1ccc(CN2CCOCC2)cc1 [Luminespib] + CS(=O)(=O)N1CCN(Cc2cc3nc(-c4cccc5[nH]ncc45)nc(N4CCOCC4)c3s2)CC1 [Pictilisib] (partner 1 µM) shows relative viability equal to 0.729

* * *

Tested on: NCI-H1944
Assay: relative viability (nuclei count vs DMSO), 5 days (fraction); higher = more cells survive
Conditions: first compound 2 µM
property_measured: relative viability
In your answer, state the number alone without any accompanying words.

Example entries begin here.
molecule	property_measured	readout_value
CN1CCN(CCOc2cc(OC3CCOCC3)c3c(Nc4c(Cl)ccc5c4OCO5)ncnc3c2)CC1 [Saracatinib] + CCNC(=O)c1noc(-c2cc(C(C)C)c(O)cc2O)c1-c1ccc(CN2CCOCC2)cc1 [Luminespib] (partner 0.01 µM)	relative viability	0.459
Cc1csc(=NC2CCCCC2)n1/N=C/c1ccc(O)c(O)c1O [MIM1] + CS(=O)(=O)CCNCc1ccc(-c2ccc3ncnc(Nc4ccc(OCc5cccc(F)c5)c(Cl)c4)c3c2)o1 [Lapatinib] (partner 2 µM)	relative viability	0.491
Cc1csc(=NC2CCCCC2)n1/N=C/c1ccc(O)c(O)c1O [MIM1] + CCNC(=O)c1noc(-c2cc(C(C)C)c(O)cc2O)c1-c1ccc(CN2CCOCC2)cc1 [Luminespib] (partner 0.01 µM)	relative viability	0.466

Now look at this one.
The molecule listed as Cc1csc(=NC2CCCCC2)n1/N=C/c1ccc(O)c(O)c1O [MIM1] + Cc1nc(Nc2ncc(C(=O)Nc3c(C)cccc3Cl)s2)cc(N2CCN(CCO)CC2)n1 [Dasatinib] (partner 0.075 µM) shows relative viability equal to 0.21

* * *

Test system: HARA
Test: relative viability (nuclei count vs DMSO), 5 days (fraction); higher = more cells survive
Settings: first compound 20 µM
Labelling field: enter Satisfied if recorded relative viability is less than 0.1. Enter Not satisfied if it equals or exceeds that cut-off.

Worked set:
compound	assigned_label
Cc1csc(=NC2CCCCC2)n1/N=C/c1ccc(O)c(O)c1O [MIM1] + O=C(CCCCCCC(=O)Nc1ccccc1)NO [Vorinostat] (partner 1 µM)	Satisfied
Cc1csc(=NC2CCCCC2)n1/N=C/c1ccc(O)c(O)c1O [MIM1] + Cc1cc(Nc2cc(N3CCN(C)CC3)nc(Sc3ccc(NC(=O)C4CC4)cc3)n2)n[nH]1 [Tozasertib] (partner 0.1 µM)	Satisfied

**Q:** Record Cc1csc(=NC2CCCCC2)n1/N=C/c1ccc(O)c(O)c1O [MIM1] + CC(=O)Nc1cccc(-n2c(=O)n(C3CC3)c(=O)c3c(Nc4ccc(I)cc4F)n(C)c(=O)c(C)c32)c1 [Trametinib] (partner 0.02 µM) : is its relative viability strictly below 0.1?
**A:** Not satisfied

**Q:** Record Cc1csc(=NC2CCCCC2)n1/N=C/c1ccc(O)c(O)c1O [MIM1] + CC(C)C[C@H](NC(=O)[C@H](Cc1ccccc1)NC(=O)c1cnccn1)B(O)O [Bortezomib] (partner 0.002 µM) : is its relative viability strictly below 0.1?
**A:** Not satisfied

**Q:** Record Cc1csc(=NC2CCCCC2)n1/N=C/c1ccc(O)c(O)c1O [MIM1] + Nc1nc2[nH]cc(CCc3ccc(C(=O)N[C@@H](CCC(=O)O)C(=O)O)cc3)c2c(=O)[nH]1 [Pemetrexed] (partner 0.2 µM) : is its relative viability strictly below 0.1?
**A:** Not satisfied

**Q:** Record Cc1csc(=NC2CCCCC2)n1/N=C/c1ccc(O)c(O)c1O [MIM1] + C[C@]1(O)C[C@@H](c2nc(-c3ccc4ccc(-c5ccccc5)nc4c3)c3c(N)nccn32)C1 [Linsitinib] (partner 1 µM) : is its relative viability strictly below 0.1?
**A:** Not satisfied
